Values from the supplement of paper PMC10307832

- Test system: A549
- assay name: relative viability (nuclei count vs DMSO), 5 days (fraction); higher = more cells survive
- measurement conditions: first compound 0.03162 µM
property: relative viability
Quick one: just the number, no unit, thanks!

- compound: "CCN(CC)CCCCNc1ncc2cc(-c3cc(OC)cc(OC)c3)c(NC(=O)NC(C)(C)C)nc2n1 + Nc1ncn([C@H]2C[C@H](O)[C@@H](CO)O2)c(=O)n1 [Decitabine] (partner 2 µM)"
  target under test: "A549"
  relative viability: 0.27
- compound: "O=c1cc(N2CCOCC2)oc2c(-c3cccc4c3sc3ccccc34)cccc12 + Cc1nc(NC(=O)N2CCC[C@H]2C(N)=O)sc1-c1ccnc(C(C)(C)C(F)(F)F)c1 [Alpelisib] (partner 2 µM)"
  target under test: "A549"
  relative viability: 0.775

// next entry
For the compound CCN(CC)CCCCNc1ncc2cc(-c3cc(OC)cc(OC)c3)c(NC(=O)NC(C)(C)C)nc2n1 + COc1cc2c(Oc3ccc(NC(=O)C4(C(=O)Nc5ccc(F)cc5)CC4)cc3F)ccnc2cc1OCCCN1CCOCC1 [Foretinib] (partner 0.25 µM) , what relative viability is on record? 0.841

* * *

- System: LXF-289
- assay name: relative viability (nuclei count vs DMSO), 5 days (fraction); higher = more cells survive
- measurement conditions: first compound 0.01 µM
Mark MET only when relative viability stays strictly below 0.9. Values equal to the cut-off are NOT MET.

Recorded results for 3 compounds are shown here.
- compound: "CCN(CC)CCCCNc1ncc2cc(-c3cc(OC)cc(OC)c3)c(NC(=O)NC(C)(C)C)nc2n1 + Cc1nc(NC(=O)N2CCC[C@H]2C(N)=O)sc1-c1ccnc(C(C)(C)C(F)(F)F)c1 [Alpelisib] (partner 2 µM)"
  label: "NOT MET"
- compound: "CCN(CC)CCCCNc1ncc2cc(-c3cc(OC)cc(OC)c3)c(NC(=O)NC(C)(C)C)nc2n1 + COc1cccc2cc(-c3nc([C@H]4CC[C@H](C(=O)O)CC4)n4ncnc(N)c34)[nH]c12 [OSI-027] (partner 0.5 µM)"
  label: "MET"
- compound: "CCN(CC)CCCCNc1ncc2cc(-c3cc(OC)cc(OC)c3)c(NC(=O)NC(C)(C)C)nc2n1 + O=C(CCCCCCC(=O)Nc1ccccc1)NO [Vorinostat] (partner 1 µM)"
  label: "MET"

Consider the compound CCN(CC)CCCCNc1ncc2cc(-c3cc(OC)cc(OC)c3)c(NC(=O)NC(C)(C)C)nc2n1 + O=C(c1cc(Cc2n[nH]c(=O)c3ccccc23)ccc1F)N1CCN(C(=O)C2CC2)CC1 [Olaparib] (partner 8 µM) . Is its relative viability strictly less than 0.9? NOT MET

* * *

Here the recorded relative viability is given for each entry.
- Tested on: NCI-H1395
- assay name: relative viability (nuclei count vs DMSO), 5 days (fraction); higher = more cells survive
- measurement conditions: first compound 20 µM

# annotated cases, reported relative viability shown
- compound: "COCC1(CO)C(=O)C2CCN1CC2 (stereo not drawn) [PRIMA-1MET] + Nc1ncn([C@H]2C[C@H](O)[C@@H](CO)O2)c(=O)n1 [Decitabine] (partner 2 µM)"
  relative viability: 0.67
- compound: "COCC1(CO)C(=O)C2CCN1CC2 (stereo not drawn) [PRIMA-1MET] + CC(=O)Nc1cccc(-n2c(=O)n(C3CC3)c(=O)c3c(Nc4ccc(I)cc4F)n(C)c(=O)c(C)c32)c1 [Trametinib] (partner 0.02 µM)"
  relative viability: 1.05
- compound: "COCC1(CO)C(=O)C2CCN1CC2 (stereo not drawn) [PRIMA-1MET] + N=C(N)NC(=N)NCCc1ccccc1 [Phenformin] (partner 250 µM)"
  relative viability: 0.395
- compound: "COCC1(CO)C(=O)C2CCN1CC2 (stereo not drawn) [PRIMA-1MET] + C[C@]1(O)C[C@@H](c2nc(-c3ccc4ccc(-c5ccccc5)nc4c3)c3c(N)nccn32)C1 [Linsitinib] (partner 1 µM)"
  relative viability: 0.859
- compound: "COCC1(CO)C(=O)C2CCN1CC2 (stereo not drawn) [PRIMA-1MET] + O=C(c1cc(Cc2n[nH]c(=O)c3ccccc23)ccc1F)N1CCN(C(=O)C2CC2)CC1 [Olaparib] (partner 8 µM)"
  relative viability: 0.426
- compound: "COCC1(CO)C(=O)C2CCN1CC2 (stereo not drawn) [PRIMA-1MET] + CCNC(=O)c1noc(-c2cc(C(C)C)c(O)cc2O)c1-c1ccc(CN2CCOCC2)cc1 [Luminespib] (partner 0.01 µM)"
  relative viability: 0.406
- compound: "COCC1(CO)C(=O)C2CCN1CC2 (stereo not drawn) [PRIMA-1MET] + NC(=O)Nc1cc(-c2cccc(F)c2)sc1C(=O)N[C@H]1CCCNC1 [AZD7762] (partner 0.2 µM)"
  relative viability: 0.129

For the compound COCC1(CO)C(=O)C2CCN1CC2 (stereo not drawn) [PRIMA-1MET] + CS(=O)(=O)CCNCc1ccc(-c2ccc3ncnc(Nc4ccc(OCc5cccc(F)c5)c(Cl)c4)c3c2)o1 [Lapatinib] (partner 2 µM) , what relative viability is on record? 0.908

* * *

- Test system: SK-LU-1
- assay name: relative viability (nuclei count vs DMSO), 5 days (fraction); higher = more cells survive
- measurement conditions: first compound 0.01 µM
property: relative viability
Quick one: just the number, no unit, thanks!

# annotated cases, reported relative viability shown
- molecule: "O=c1cc(N2CCOCC2)oc2c(-c3cccc4c3sc3ccccc34)cccc12 + Nc1nc2[nH]cc(CCc3ccc(C(=O)N[C@@H](CCC(=O)O)C(=O)O)cc3)c2c(=O)[nH]1 [Pemetrexed] (partner 0.2 µM)"
  relative viability: 0.963
- molecule: "CCN(CC)CCCCNc1ncc2cc(-c3cc(OC)cc(OC)c3)c(NC(=O)NC(C)(C)C)nc2n1 + CS(=O)(=O)N1CCN(Cc2cc3nc(-c4cccc5[nH]ncc45)nc(N4CCOCC4)c3s2)CC1 [Pictilisib] (partner 1 µM)"
  relative viability: 0.483

For the molecule CCN(CC)CCCCNc1ncc2cc(-c3cc(OC)cc(OC)c3)c(NC(=O)NC(C)(C)C)nc2n1 + Cc1nc(Nc2ncc(C(=O)Nc3c(C)cccc3Cl)s2)cc(N2CCN(CCO)CC2)n1 [Dasatinib] (partner 0.075 µM) , what relative viability is on record? 0.158

For the molecule O=c1cc(N2CCOCC2)oc2c(-c3cccc4c3sc3ccccc34)cccc12 + Cc1nc(Nc2ncc(C(=O)Nc3c(C)cccc3Cl)s2)cc(N2CCN(CCO)CC2)n1 [Dasatinib] (partner 0.075 µM) , what relative viability is on record? 0.173

For the molecule O=c1cc(N2CCOCC2)oc2c(-c3cccc4c3sc3ccccc34)cccc12 + CC(=O)c1c(C)c2cnc(Nc3ccc(N4CCNCC4)cn3)nc2n(C2CCCC2)c1=O [Palbociclib] (partner 0.5 µM) , what relative viability is on record? 0.473

For the molecule O=c1cc(N2CCOCC2)oc2c(-c3cccc4c3sc3ccccc34)cccc12 + Cc1cc(Nc2cc(N3CCN(C)CC3)nc(Sc3ccc(NC(=O)C4CC4)cc3)n2)n[nH]1 [Tozasertib] (partner 0.1 µM) , what relative viability is on record? 0.314

For the molecule CCN(CC)CCCCNc1ncc2cc(-c3cc(OC)cc(OC)c3)c(NC(=O)NC(C)(C)C)nc2n1 + N=C(N)NC(=N)NCCc1ccccc1 [Phenformin] (partner 250 µM) , what relative viability is on record? 0.661

* * *

- Tested on: SW 1573
- assay name: relative viability (nuclei count vs DMSO), 5 days (fraction); higher = more cells survive
- measurement conditions: first compound 0.3162 µM
Here the recorded relative viability is given for each entry.
Quick one: just the number, no unit, thanks!

# annotated cases, reported relative viability shown
- compound: "O=c1cc(N2CCOCC2)oc2c(-c3cccc4c3sc3ccccc34)cccc12 + CC(=O)Nc1cccc(-n2c(=O)n(C3CC3)c(=O)c3c(Nc4ccc(I)cc4F)n(C)c(=O)c(C)c32)c1 [Trametinib] (partner 0.02 µM)"
  relative viability: 0.603
- compound: "CCN(CC)CCCCNc1ncc2cc(-c3cc(OC)cc(OC)c3)c(NC(=O)NC(C)(C)C)nc2n1 + COc1cccc2cc(-c3nc([C@H]4CC[C@H](C(=O)O)CC4)n4ncnc(N)c34)[nH]c12 [OSI-027] (partner 0.5 µM)"
  relative viability: 0.691
- compound: "O=c1cc(N2CCOCC2)oc2c(-c3cccc4c3sc3ccccc34)cccc12 + O=C(c1cc(Cc2n[nH]c(=O)c3ccccc23)ccc1F)N1CCN(C(=O)C2CC2)CC1 [Olaparib] (partner 8 µM)"
  relative viability: 0.441

// next entry
For the compound O=c1cc(N2CCOCC2)oc2c(-c3cccc4c3sc3ccccc34)cccc12 + Cc1nc(Nc2ncc(C(=O)Nc3c(C)cccc3Cl)s2)cc(N2CCN(CCO)CC2)n1 [Dasatinib] (partner 0.075 µM) , what relative viability is on record? 0.546
